# TGT: T1, hPD-1-his (human, UniProt Q15116 25-167)
# T1 construct: domain: IgV domain; monomer in solution; biotin-labelled where captured by streptavidin; also called biotin-hPD-1-his
# ASSAY OVERVIEW: ELISA, PD-1-his on anti-his
Collected OD at 10 nM values appear next to each entry.

BINDER	DATA VALUE
38A10 (antibody, V domains shown) VH: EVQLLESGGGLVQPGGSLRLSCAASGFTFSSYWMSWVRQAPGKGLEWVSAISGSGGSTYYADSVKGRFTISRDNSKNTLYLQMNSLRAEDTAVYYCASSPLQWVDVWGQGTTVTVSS VL: DIQMTQSPSSLSASVGDRVTITCRASQSISTWLAWYQQKPGKAPKLLIYDASRLQNGVPSRFSGSGSGTDFTLTISSLQPEDFATYYCQQGDSFPFTFGPGTKVDIK	0.552 OD

Query string: Returns the measured OD at 10 nM for the input binder. Input: 39B11 (antibody, V domains shown) VH: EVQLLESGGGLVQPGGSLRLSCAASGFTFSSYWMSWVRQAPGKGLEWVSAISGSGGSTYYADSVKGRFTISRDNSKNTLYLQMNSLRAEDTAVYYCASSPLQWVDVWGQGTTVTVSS VL: DIQMTQSPSSLSASVGDRVTITCRASQSISSWLAWYQQKPGKAPKLLIYEASRLQSGVPSRFSGSGSGTDFTLTISSLQPEDFATYYCQQANSFPFTFGPGTKVDIK
Result string: 0.482 OD
